System: CP201
Experiment: qHTS profiling for inhibitors of Plasmodium falciparum proliferation (AID 504749); further: nearly all actives have a fitted effect of over 60% in size
Conditions: P. falciparum in erythrocytes, SYBR Green DNA, 72 h; series mostly up to 28.7 µM
Results filed as inconclusive are left out. Calls of active or inactive are those of the source. The call rests on the fitted dose curve; in most records, active means well fitted inhibition curve with a large enough effect; inconclusive means small, poorly fitted or top-dose-only effect; inactive means flat fitted curve, though single readings scatter.
# valid calls are yes (1) = active, no (0) = inactive; nothing else

What was the test verdict on CC[N+]1(C)CCCC(OC(=O)C(O)(c2ccccc2)c2ccccc2)C1 (stereo unspecified) ?
no (0)

What was the test verdict on `CN1CCN(C(=O)O[C@H]2c3nccnc3C(=O)N2c2ccc(Cl)cn2)CC1` ?
no (0)

What was the test verdict on `CCCN1CCC[C@@H]2Cc3[nH]ncc3C[C@H]21` ?
no (0)

What was the test verdict on Clc1ccc(COC(Cn2ccnc2)c2ccc(Cl)cc2Cl)cc1 (stereo unspecified) ?
yes (1)

What was the test verdict on `NN=C(N)N` ?
no (0)

What was the test verdict on `Oc1ccc(Cl)cc1Cc1ccccc1` ?
no (0)

What was the test verdict on `N#CC(C#N)=Cc1ccc(O)c(O)c1` ?
no (0)

What was the test verdict on `Cn1c(CCCC(=O)O)nc2cc(N(CCCl)CCCl)ccc21` ?
no (0)

What was the test verdict on `N[C@@H](Cc1ccc(N(CCCl)CCCl)cc1)C(=O)O` ?
no (0)

What was the test verdict on NCC(CC(=O)O)c1ccc(Cl)cc1 (stereo unspecified) ?
no (0)

What was the test verdict on COc1ccc(C(CN(C)C)C2(O)CCCCC2)cc1 (stereo unspecified) ?
no (0)

What was the test verdict on `Oc1ccccc1-c1ccccc1` ?
no (0)

What was the test verdict on `CC(=O)[C@H]1CC[C@H]2[C@@H]3CC[C@H]4C[C@H](O)CC[C@]4(C)[C@H]3C(=O)C[C@]12C` ?
no (0)

What was the test verdict on CCC(COC(=O)c1cc(OC)c(OC)c(OC)c1)(c1ccccc1)N(C)C (stereo unspecified) ?
no (0)

What was the test verdict on `CC[C@@H](CO)NC(=O)[C@@H]1C=C2c3cccc4[nH]cc(c34)C[C@H]2N(C)C1` ?
no (0)

What was the test verdict on `C#CCOC(C(=O)OCCN(C)C)(c1ccccc1)c1ccccc1` ?
no (0)

---

Tested on: CP291
Assay: qHTS profiling for inhibitors of Plasmodium falciparum proliferation (AID 504749); further: nearly all actives have a fitted effect of over 60% in size
Details: P. falciparum in erythrocytes, SYBR Green DNA, 72 h; series mostly up to 28.7 µM
Results filed as inconclusive are left out. Calls of active or inactive are those of the source. Calls follow the shape of the dose curve; as a rule, active = well fitted inhibition curve with a large enough effect; inconclusive = small, poorly fitted or top-dose-only effect; inactive = flat fitted curve, though single readings scatter.
# valid calls are active, inactive; nothing else

What was the test verdict on `NCCc1cc(O)c(O)cc1O` ?
inactive

What was the test verdict on O=C(NC(O)C(Cl)(Cl)Cl)NC(O)C(Cl)(Cl)Cl (stereo not drawn) ?
inactive

What was the test verdict on `O=c1[nH]c2ccccc2n1C1CCN(CCCC(c2ccc(F)cc2)c2ccc(F)cc2)CC1` ?
inactive

What was the test verdict on `O=[N+]([O-])c1cc([As](=O)(O)O)ccc1O` ?
active

What was the test verdict on `OCCOc1ccccc1` ?
inactive

What was the test verdict on `Cc1ccc(-c2nc3ccc(C)cn3c2CC(=O)N(C)C)cc1` ?
inactive

What was the test verdict on `N#CC(C#N)=Cc1ccc(O)c(O)c1` ?
inactive

What was the test verdict on `CC[C@@H](CO)NC(=O)[C@@H]1C=C2c3cccc4[nH]cc(c34)C[C@H]2N(C)C1` ?
inactive

What was the test verdict on CC(C)=CC1C(C(=O)OCc2cccc(Oc3ccccc3)c2)C1(C)C (stereo not drawn) ?
inactive

What was the test verdict on `NN=C(N)N` ?
inactive

What was the test verdict on `C#CCOC(C(=O)OCCN(C)C)(c1ccccc1)c1ccccc1` ?
inactive

What was the test verdict on `CC(=O)[C@H]1CC[C@H]2[C@@H]3CC[C@H]4C[C@](C)(O)CC[C@]4(C)[C@H]3CC[C@]12C` ?
inactive

What was the test verdict on `CCCN1CCC[C@@H]2Cc3[nH]ncc3C[C@H]21` ?
inactive

What was the test verdict on CC[N+]1(C)CCCC(OC(=O)C(O)(c2ccccc2)c2ccccc2)C1 (stereo not drawn) ?
inactive

What was the test verdict on `Nc1ccncc1` ?
inactive

What was the test verdict on CCCC(C)(COC(N)=O)COC(=O)NC(C)C (stereo not drawn) ?
inactive

What was the test verdict on `Cc1ncc(CNC(=O)N(CCCl)N=O)c(N)n1` ?
inactive

What was the test verdict on `Fc1ccc(C(OCCN2CCN(CCCc3ccccc3)CC2)c2ccc(F)cc2)cc1` ?
active

What was the test verdict on CC1OC(C)OC(C)O1 (stereo not drawn) ?
inactive

What was the test verdict on `CN(C)CCc1ccc(O)cc1` ?
inactive

What was the test verdict on `NP(N)(=O)NC(=O)c1ccc(F)cc1` ?
inactive

What was the test verdict on `COc1ccccc1N1CCNCC1` ?
inactive

What was the test verdict on `O=C(O)c1ccc2[nH]cc(CCCCN3CC=C(c4ccccc4)CC3)c2c1` ?
inactive

What was the test verdict on `CCOP(=S)(OCC)Oc1cc(C)nc(C(C)C)n1` ?
inactive

What was the test verdict on `NCC1(CC(=O)O)CCCCC1` ?
inactive

What was the test verdict on `CC(C)(C)CC(C)(C)c1ccc(O)cc1` ?
inactive

What was the test verdict on `Cn1c(CCCC(=O)O)nc2cc(N(CCCl)CCCl)ccc21` ?
inactive

What was the test verdict on O=P1(NCCCl)OCCCN1CCCl (stereo not drawn) ?
inactive

What was the test verdict on `CCOC(=O)C1(c2ccccc2)CCN(CCC(C#N)(c2ccccc2)c2ccccc2)CC1` ?
active

What was the test verdict on CCCC1CCCCN1 (stereo not drawn) ?
inactive

What was the test verdict on NCC(CC(=O)O)c1ccc(Cl)cc1 (stereo not drawn) ?
inactive

What was the test verdict on `CC(=O)Nc1cc([As](=O)(O)O)ccc1O` ?
inactive

What was the test verdict on `FC(F)(F)c1cccc(C2=CCN(CCc3ccc4ccccc4c3)CC2)c1` ?
inactive

What was the test verdict on CCC(COC(=O)c1cc(OC)c(OC)c(OC)c1)(c1ccccc1)N(C)C (stereo not drawn) ?
inactive

What was the test verdict on NCC(O)c1ccc(O)cc1 (stereo not drawn) ?
inactive

What was the test verdict on `c1ccc(C2CC2)c(OCC2=NCCN2)c1` ?
inactive

What was the test verdict on `Clc1cccc(N2CCNCC2)c1` ?
inactive

What was the test verdict on `CCN(C(C)=O)c1cccc(-c2ccnc3c(C#N)cnn23)c1` ?
inactive

---

Tested on: Zika virus NS2B-NS3 protease
Assay: Primary screen GU AMC qHTS for Zika virus inhibitors (AID 1347154); further: nearly all actives have a fitted effect of over 70% in size
Conditions: Zika NS2B-NS3 unlinked protease, AMC fluorogenic substrate; series mostly up to 54.1 µM
Records with an inconclusive call do not appear. Active and inactive are the calls of the source. The call rests on the fitted dose curve; in most records, active means well fitted inhibition curve with a large enough effect; inconclusive means small, poorly fitted or top-dose-only effect; inactive means flat fitted curve, though single readings scatter.
# valid calls are True (active), False (inactive); nothing else

What was the test verdict on CNCC(O)c1ccc(O)cc1 (stereo unspecified) ?
False

What was the test verdict on CC1NCCOC1c1ccccc1 (stereo unspecified) ?
False

What was the test verdict on `Cc1ccc(-c2nc3ccc(C)cn3c2CC(=O)N(C)C)cc1` ?
True

What was the test verdict on CC(C)=CC1C(C(=O)OCc2cccc(Oc3ccccc3)c2)C1(C)C (stereo unspecified) ?
False

What was the test verdict on NCC(O)c1ccc(O)cc1 (stereo unspecified) ?
False

What was the test verdict on `CC(=O)[C@H]1CC[C@H]2[C@@H]3CC[C@H]4C[C@H](O)CC[C@]4(C)[C@H]3C(=O)C[C@]12C` ?
False

What was the test verdict on `O=c1[nH]c2ccccc2n1CCCN1CCC(n2c(=O)[nH]c3cc(Cl)ccc32)CC1` ?
False

What was the test verdict on `C=C1CC[C@@]2(O)[C@H]3Cc4ccc(O)c5c4[C@@]2(CCN3CC2CC2)[C@H]1O5` ?
False

What was the test verdict on `COC[C@@H](NC(C)=O)C(=O)NCc1ccccc1` ?
False

What was the test verdict on `CNC(=O)c1ccc(N2C(=S)N(c3ccc(C#N)c(C(F)(F)F)c3)C(=O)C23CCC3)cc1F` ?
False

What was the test verdict on `CCN(CC)CCOC(=O)C(O)(c1ccccc1)c1ccccc1` ?
False

---

Test: qHTS for Inhibitors of ATXN expression: Validation of Cytotoxic Assay (AID 588349);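 further: cells exposed to compound for 72 hr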
Conditions: cytotoxicity counter-screen for ATXN expression inhibitors, cell viability; series mostly up to 57.1 µM
Results filed as inconclusive are left out. Active and inactive are the calls of the source. Calls come from the whole dose curve; as a rule, active = well fitted cell-killing curve with a large enough effect; inconclusive = small, poorly fitted or top-dose-only effect, or effect the other way; inactive = flat fitted curve, though single readings scatter.
# valid calls are active, inactive; nothing else

What was the test verdict on `NCC1(CC(=O)O)CCCCC1` ?
inactive

What was the test verdict on `Cc1ncc(CNC(=O)N(CCCl)N=O)c(N)n1` ?
inactive

What was the test verdict on CCCC(C)(COC(N)=O)COC(=O)NC(C)C (configuration not stated) ?
inactive

What was the test verdict on COc1ccc(C(CN(C)C)C2(O)CCCCC2)cc1 (configuration not stated) ?
inactive

What was the test verdict on `Cc1cc2c(C(C)C)c(O)c(O)c(C=O)c2c(O)c1-c1c(C)cc2c(C(C)C)c(O)c(O)c(C=O)c2c1O` ?
active

What was the test verdict on CCC1(C2=NCCN2)Cc2ccccc2O1 (configuration not stated) ?
inactive

What was the test verdict on `Fc1ccc(C(OCCN2CCN(CCCc3ccccc3)CC2)c2ccc(F)cc2)cc1` ?
active

What was the test verdict on NCC(O)c1ccc(O)cc1 (configuration not stated) ?
inactive

What was the test verdict on `NN=C(N)N` ?
inactive

What was the test verdict on `CC(=O)[C@H]1CC[C@H]2[C@@H]3CC[C@H]4C[C@](C)(O)CC[C@]4(C)[C@H]3CC[C@]12C` ?
inactive

What was the test verdict on `CC(C)=CCOc1c2occc2cc2ccc(=O)oc12` ?
inactive

What was the test verdict on `Cc1cccc(C)c1NC1=NCCCS1` ?
inactive
